Source: patent US12297234B2

# Test system: UniProtKB P18031
# Sequence (P18031 whole entry): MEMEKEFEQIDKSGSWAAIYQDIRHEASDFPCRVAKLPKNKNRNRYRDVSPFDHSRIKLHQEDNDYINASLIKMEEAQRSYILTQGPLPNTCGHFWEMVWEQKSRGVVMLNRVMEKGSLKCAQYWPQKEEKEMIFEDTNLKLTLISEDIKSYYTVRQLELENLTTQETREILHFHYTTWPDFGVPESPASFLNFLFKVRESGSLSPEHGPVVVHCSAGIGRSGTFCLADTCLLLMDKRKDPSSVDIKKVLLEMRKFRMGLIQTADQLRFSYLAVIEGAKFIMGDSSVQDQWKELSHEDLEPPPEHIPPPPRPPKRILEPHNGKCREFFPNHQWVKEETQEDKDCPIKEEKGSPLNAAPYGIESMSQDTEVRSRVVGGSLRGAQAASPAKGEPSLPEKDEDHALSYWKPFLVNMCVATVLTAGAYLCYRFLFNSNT
# Assay explanation: PTP1B-catalyzed hydrolysis of pNPP in the presence of inhibitor
# Test context: commercially available abietane-type acids, FIG. 16; read-out: K, (inhibition of PTP1B)
Outcome measure: Ki (µM)

[[record]]
compound = "CC(C)C1=CC2=CC[C@@H]3[C@](C)(CCC[C@@]3(C)C(=O)O)[C@H]2CC1 [abietic acid]"
outcome_measure = "Ki"
observed_value = 250

